Target: T1, ECF03_1198
T1 chain: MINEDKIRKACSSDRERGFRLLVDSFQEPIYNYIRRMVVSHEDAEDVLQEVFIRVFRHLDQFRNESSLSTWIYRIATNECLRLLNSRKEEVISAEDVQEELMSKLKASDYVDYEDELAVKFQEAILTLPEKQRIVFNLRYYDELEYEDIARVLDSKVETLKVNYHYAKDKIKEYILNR
For each record, write down the corresponding fold repression.
I only need the number, thanks.

Value of fold repression reported for the binder AS31_34 (protein) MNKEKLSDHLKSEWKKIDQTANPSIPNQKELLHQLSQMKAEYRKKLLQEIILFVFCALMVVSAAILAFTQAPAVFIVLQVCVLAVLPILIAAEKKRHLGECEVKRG is 2.96

Value of fold repression reported for the binder AS11_987 (protein) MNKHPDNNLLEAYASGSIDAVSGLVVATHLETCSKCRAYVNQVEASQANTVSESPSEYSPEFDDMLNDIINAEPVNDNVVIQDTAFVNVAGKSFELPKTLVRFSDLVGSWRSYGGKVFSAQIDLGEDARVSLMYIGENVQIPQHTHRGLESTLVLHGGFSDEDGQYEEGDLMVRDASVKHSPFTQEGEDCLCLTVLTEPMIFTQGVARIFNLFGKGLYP is 2.32

Numbers sourced from paper PMC3817407.
